assayed.system: BRAF D594G (Homo sapiens, UniProt P15056, D594G)
Construct: Horizon Discovery (HCT-116 BRAF−/− cells); host or cells: HCT-116 BRAF−/− cells, clone 63, lentiviral transduction
Sequence (P15056 whole entry D594G): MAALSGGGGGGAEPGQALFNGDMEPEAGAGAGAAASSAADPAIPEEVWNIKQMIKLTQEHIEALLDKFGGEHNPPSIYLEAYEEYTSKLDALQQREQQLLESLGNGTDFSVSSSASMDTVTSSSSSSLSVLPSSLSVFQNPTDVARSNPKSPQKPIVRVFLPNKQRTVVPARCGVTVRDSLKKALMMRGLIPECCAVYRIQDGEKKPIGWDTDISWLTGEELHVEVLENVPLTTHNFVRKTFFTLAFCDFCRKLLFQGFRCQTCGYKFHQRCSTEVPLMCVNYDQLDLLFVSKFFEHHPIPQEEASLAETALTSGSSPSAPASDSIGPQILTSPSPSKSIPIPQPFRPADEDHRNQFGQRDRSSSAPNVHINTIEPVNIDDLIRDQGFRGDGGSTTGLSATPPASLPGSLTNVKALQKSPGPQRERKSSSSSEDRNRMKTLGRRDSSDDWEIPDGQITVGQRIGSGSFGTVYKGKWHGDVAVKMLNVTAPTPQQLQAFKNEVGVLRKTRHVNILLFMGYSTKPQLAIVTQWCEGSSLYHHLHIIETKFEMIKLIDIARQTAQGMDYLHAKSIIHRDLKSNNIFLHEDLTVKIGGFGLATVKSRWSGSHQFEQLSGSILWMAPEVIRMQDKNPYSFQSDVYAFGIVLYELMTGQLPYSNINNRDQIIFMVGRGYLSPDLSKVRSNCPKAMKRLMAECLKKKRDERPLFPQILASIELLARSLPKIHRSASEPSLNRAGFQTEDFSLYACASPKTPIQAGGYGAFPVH
test: BRAF HiBiT degradation assay, C-terminal HiBiT-tagged BRAF D594G overexpressed in HCT-116 BRAF−/− cells (clone 63), Nano-Glo HiBiT Lytic assay
Format: cell-based
conditions: BRAF D594G (Class 3), HCT-116 BRAF−/− cells; observed Dmax relative to DMSO control
value.kind: Dmax

Known Dmax results, listed for orientation:
[[record]]
compound = "O=C1CC[C@H](c2ccc(N3CCC(CN4CCN(c5ccc(-n6cc(-c7cc(Cl)cc(NS(=O)(=O)N8CC[C@@H](F)C8)c7F)c(-c7ccncc7)n6)cc5F)CC4)CC3)cc2)C(=O)N1"
assayed_system = "BRAF D594G (Homo sapiens, UniProt P15056, D594G)"
value_kind = "Dmax"
result = "> 70%"

[[record]]
compound = "O=C1CCC(c2cc(F)c(N3CCC(CN4CCN(c5ccc(-n6cc(-c7cc(Cl)cc(NS(=O)(=O)N8CCCC8)c7F)c(-c7ccncc7)n6)cc5)CC4)CC3)cc2F)C(=O)N1 (racemic)"
assayed_system = "BRAF D594G (Homo sapiens, UniProt P15056, D594G)"
value_kind = "Dmax"
result = "30 to 70%"

[[record]]
compound = "O=C1CC[C@H](c2ccc(N3CCC(CN4CCN(c5ccc(-n6cc(-c7cc(Cl)cc(NS(=O)(=O)N8CCCC8)c7F)c(-c7ccncc7)n6)cc5)CC4)CC3)cc2F)C(=O)N1"
assayed_system = "BRAF D594G (Homo sapiens, UniProt P15056, D594G)"
value_kind = "Dmax"
result = "> 70%"

[[record]]
compound = "C[C@@H]1CN(c2ccc(-n3cc(-c4cc(Cl)cc(NS(=O)(=O)N5CCCC5)c4F)c(-c4ccncc4)n3)nc2)CCN1CC1CCN(c2ccc([C@H]3CCC(=O)NC3=O)cn2)CC1"
assayed_system = "BRAF D594G (Homo sapiens, UniProt P15056, D594G)"
value_kind = "Dmax"
result = "> 70%"


Task item: I have this compound here, `O=C1CCN(c2ccc(N3CCC(CN4CCN(c5ccc(-n6cc(-c7cc(Cl)cc(NS(=O)(=O)N8CCCC8)c7F)c(-c7ccncc7)n6)nc5)CC4)CC3)cc2)C(=O)N1` , and I need its recorded Dmax.
Reply: 30 to 70%
